Attribution: patent US11066396B2

Target: HDAC1 (Homo sapiens (Human))
Sequence (Q13547 whole entry): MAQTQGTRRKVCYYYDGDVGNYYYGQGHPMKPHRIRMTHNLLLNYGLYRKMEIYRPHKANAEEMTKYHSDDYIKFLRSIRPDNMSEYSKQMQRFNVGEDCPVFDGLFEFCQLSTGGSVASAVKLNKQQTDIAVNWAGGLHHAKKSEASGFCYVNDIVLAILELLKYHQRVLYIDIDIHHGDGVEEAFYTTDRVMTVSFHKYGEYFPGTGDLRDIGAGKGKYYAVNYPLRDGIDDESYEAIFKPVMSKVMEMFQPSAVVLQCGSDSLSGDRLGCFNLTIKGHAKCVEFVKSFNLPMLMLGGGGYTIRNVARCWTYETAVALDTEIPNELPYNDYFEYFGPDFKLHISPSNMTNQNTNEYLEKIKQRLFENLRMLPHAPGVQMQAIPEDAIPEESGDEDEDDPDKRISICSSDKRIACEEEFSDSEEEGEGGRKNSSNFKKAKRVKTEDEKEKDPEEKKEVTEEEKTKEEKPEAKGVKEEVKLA
Class field: derived from IC50; ranges lower segment = under 800 nM, middle segment = from 800 nM up to 2000 nM, upper segment = 2000 nM and over

Worked set:
O=C1CCc2cc(C(F)(F)F)ccc2N1Cc1ccc(-c2noc(C(F)(F)F)n2)cn1 :: lower segment
Cc1nccc(OCc2ccc(-c3noc(C(F)(F)F)n3)c(F)c2)n1 :: upper segment
NC(=O)c1cccc(OCc2ccc(-c3noc(C(F)(F)F)n3)c(F)c2)c1 :: upper segment
CS(=O)(=O)NC(Cc1ccc(-c2noc(C(F)(F)F)n2)cn1)c1cccc(C(F)(F)F)c1 (centres unmarked) :: lower segment
FC(F)(F)c1nc(-c2ccc(CN(c3ccccn3)c3ccccn3)cc2)no1 :: upper segment
FC(F)(F)c1nc(-c2ccnc(OCc3ccnn3-c3cccnc3)c2)no1 :: middle segment

Bin this entry: `CC(C)C(=O)N1CCC(C(=O)N(Cc2ccc(-c3noc(C(F)(F)F)n3)cc2)c2cccc(C(F)(F)F)c2)CC1` middle segment

Place this compound in its band: `Fc1ccc2ccc(OCc3ccc(-c4noc(C(F)(F)F)n4)c(F)c3)nc2n1` middle segment

Band for the recorded IC50 of `FC(F)(F)c1nc(-c2ccc(COc3nc(C4CC4)no3)nc2)no1` ? upper segment

Class (by measured IC50) for `O=C(C1CCS(=O)(=O)CC1)N(Cc1cnc(-c2noc(C(F)(F)F)n2)cn1)c1cccc(C(F)(F)F)c1` middle segment

Would you mind sorting O=C1CCC(c2ccccc2)N1c1ccc(-c2noc(C(F)(F)F)n2)cc1F (centres unmarked) into the appropriate category? lower segment

Band for `Cc1nc2ccc(F)cc2n1Cc1ccc(-c2noc(C(F)(F)F)n2)cc1F` ? middle segment

Class for `CN1CCN(CC(=O)N(Cc2ccc(-c3noc(C(F)(F)F)n3)cc2)c2cccc(C(F)(F)F)c2)CC1` ? middle segment
